relative KD to VH0/Vκ0 values by entry
Target desc: T1, His-tagged CEACAM1 (human, UniProt P13688 35-428)
T1 construct: 45 kDa SPR analyte; also called CEACAM1-HIS; CEACAM1 analyte
T1 sequence: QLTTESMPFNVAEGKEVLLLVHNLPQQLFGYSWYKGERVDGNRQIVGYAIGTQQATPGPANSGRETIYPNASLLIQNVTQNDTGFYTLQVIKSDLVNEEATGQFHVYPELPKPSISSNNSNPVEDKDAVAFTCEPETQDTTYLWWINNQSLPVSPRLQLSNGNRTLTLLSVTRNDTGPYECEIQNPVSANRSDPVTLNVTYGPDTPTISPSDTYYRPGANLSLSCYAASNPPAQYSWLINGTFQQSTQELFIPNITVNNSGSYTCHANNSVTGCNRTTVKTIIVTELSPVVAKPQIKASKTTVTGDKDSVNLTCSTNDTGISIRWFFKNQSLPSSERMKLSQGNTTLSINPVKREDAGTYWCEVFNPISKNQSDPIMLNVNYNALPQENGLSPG
Method notes: SPR multi-cycle, IgG captured
The answer should be written as a number, with no unit following it.

Binder | relative KD to VH0/Vκ0
VH1/Vκ10 (antibody, IgG4, V domains shown, IgG4 (S241P), kappa) VH: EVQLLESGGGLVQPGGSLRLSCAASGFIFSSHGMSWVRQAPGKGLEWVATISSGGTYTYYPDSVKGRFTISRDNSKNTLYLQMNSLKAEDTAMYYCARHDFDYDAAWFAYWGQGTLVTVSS VL: EIVLTQSPATLSLSPGERATLSCRANSSVSYMYWYQQKPGQAPRPWIYLTSNRATGIPARFSGSGSGTDFTLTISSLEPEDFATYYCQQWSSNPPTFGQGTKLEIK | 3.2
VH1/Vκ12 (antibody, IgG4, V domains shown, IgG4 (S241P), kappa) VH: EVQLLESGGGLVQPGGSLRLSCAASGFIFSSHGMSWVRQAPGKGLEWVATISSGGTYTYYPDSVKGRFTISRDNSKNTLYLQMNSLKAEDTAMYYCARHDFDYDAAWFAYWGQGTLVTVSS VL: EIVLTQSPATLSLSPGERATLSCRANSSVSYMYWYQQKPGQAPRPLIYLTSNRATGIPARFSGSGSGTDYTLTISSLEPEDFATYYCQQWSSNPPTFGQGTKLEIK | 2.2
VH1/Vκ9 (antibody, IgG4, V domains shown, IgG4 (S241P), kappa) VH: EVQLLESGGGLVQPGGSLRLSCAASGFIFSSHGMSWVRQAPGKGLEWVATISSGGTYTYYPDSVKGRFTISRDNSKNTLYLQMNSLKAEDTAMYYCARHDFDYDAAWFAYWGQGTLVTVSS VL: EIVLTQSPATLSLSPGERATLSCRANSSVSYMYWYQQKPGQAPRPLIYLTSNRATGVPARFSGSGSGTDYTLTISSLEPEDFATYYCQQWSSNPPTFGQGTKLEIK | 4

Note: attention shifts to another entry.
What does the data say about its relative KD to VH0/Vκ0? Entry: VH1/Vκ8 (antibody, IgG4, V domains shown, IgG4 (S241P), kappa) VH: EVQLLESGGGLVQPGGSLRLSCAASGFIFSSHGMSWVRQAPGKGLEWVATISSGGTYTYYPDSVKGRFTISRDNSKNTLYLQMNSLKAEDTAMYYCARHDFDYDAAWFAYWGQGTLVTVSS VL: EIVLTQSPATLSLSPGERATLSCRANSSVSYMYWYQQKPGQAPRPWIYLTSNRATGVPARFSGSGSGTDYTLTISSLEPEDFAVYYCQQWSSNPPTFGQGTKLEIK
1.8
